Attribution: ChEMBL document CHEMBL3217502

Recorded pIC50 values (Acetylcholinesterase (Electrophorus electricus, UniProt O42275)) are given below.
Schema: pIC50 number; meaning minus log10 of the concentration expressed in molar units.

Some solved cases for reference:
c1cc2c(OCC3CCN(CC4CCCCC4)CC3)nc3ccsc3n2c1 :: 6.69
c1ccc(CN2CCC(COc3nc4ccsc4n4cccc34)CC2)cc1 :: 6.26
Cc1csc2nc(OCC3CCN(Cc4ccccc4)CC3)c3cccn3c12 :: 6.78
c1cc2c(OCC3CCN(CC4CCCC4)CC3)nc3ccsc3n2c1 :: 6.22

Task: What value of pIC50 on Acetylcholinesterase (Electrophorus electricus, UniProt O42275) does Cc1csc2nc(OCC3CCN(CC4CCCC4)CC3)c3cccn3c12 have?
Result: 6.26

Task: What value of pIC50 on Acetylcholinesterase (Electrophorus electricus, UniProt O42275) does c1ccc(CN2CCC(CCOc3nc4ccsc4n4cccc34)CC2)cc1 have?
Result: 6.25

Task: What value of pIC50 on Acetylcholinesterase (Electrophorus electricus, UniProt O42275) does CCCN1CCC(COc2nc3scc(C)c3n3cccc23)CC1 have?
Result: 5.30

Task: What value of pIC50 on Acetylcholinesterase (Electrophorus electricus, UniProt O42275) does Cc1csc2nc(OCC3CCN(CC4CCCCC4)CC3)c3cccn3c12 have?
Result: 7.02

* * *

biological target: 5-hydroxytryptamine receptor 4 (Homo sapiens); experiment: Displacement of [3H]-GR113808 from human 5HT4E receptor at 10^-6 M after 30 mins by liquid scintillation counting
Collected inhibition values appear next to each entry.
Number only, in %; omit the unit.

c1ccc(CN2CCC(COc3nc4ccsc4n4cccc34)CC2)cc1 :: 96
c1cc2c(OCC3CCN(CC4CCCCC4)CC3)nc3ccsc3n2c1 :: 99
Cc1csc2nc(OCC3CCN(Cc4ccccc4)CC3)c3cccn3c12 :: 98
Cc1csc2nc(OCC3CCN(CC4CCCC4)CC3)c3cccn3c12 :: 100
Cc1csc2nc(OCC3CCN(CC4CCCCC4)CC3)c3cccn3c12 :: 99

Task: Suppose we examine the molecule c1cc2c(OCC3CCN(CC4CCCC4)CC3)nc3ccsc3n2c1 ; what inhibition value has been reported?
Result: 100

* * *

Collected inhibition values appear next to each entry.
target: 5-hydroxytryptamine receptor 4 (Homo sapiens) (UniProt Q13639); experiment: Displacement of [3H]-GR113808 from human 5HT4E receptor at 10^-8 M after 30 mins by liquid scintillation counting
Sequence (Q13639 whole entry): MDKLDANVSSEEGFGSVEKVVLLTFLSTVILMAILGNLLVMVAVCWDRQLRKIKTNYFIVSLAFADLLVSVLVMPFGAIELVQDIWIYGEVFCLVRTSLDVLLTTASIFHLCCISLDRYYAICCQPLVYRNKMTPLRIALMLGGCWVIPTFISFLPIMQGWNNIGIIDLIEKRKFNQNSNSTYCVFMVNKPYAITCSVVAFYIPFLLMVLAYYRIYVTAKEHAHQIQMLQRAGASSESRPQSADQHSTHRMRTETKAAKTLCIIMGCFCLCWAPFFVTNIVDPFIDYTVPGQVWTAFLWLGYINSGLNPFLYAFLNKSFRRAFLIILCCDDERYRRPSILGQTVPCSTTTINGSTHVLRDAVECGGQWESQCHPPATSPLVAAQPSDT
Number only, in %; omit the unit.

Some solved cases for reference:
Cc1csc2nc(OCC3CCN(CC4CCCCC4)CC3)c3cccn3c12 :: 60
Cc1csc2nc(OCC3CCN(Cc4ccccc4)CC3)c3cccn3c12 :: 38
c1cc2c(OCC3CCN(CC4CCCCC4)CC3)nc3ccsc3n2c1 :: 22
c1ccc(CN2CCC(COc3nc4ccsc4n4cccc34)CC2)cc1 :: 30
c1cc2c(OCC3CCN(CC4CCCC4)CC3)nc3ccsc3n2c1 :: 39

Consider the record given below.
Task: Suppose we examine the compound Cc1csc2nc(OCC3CCN(CC4CCCC4)CC3)c3cccn3c12 ; what inhibition value has been reported?
Result: 78

* * *

Recorded Ki values (5-hydroxytryptamine receptor 4 (Cavia porcellus)) are given below.
Number only, in nM; omit the unit.

Some solved cases for reference:
Fc1ccc(CN2CCC(COc3nc4ccsc4n4cccc34)CC2)cc1 :: 99
c1cc2c(OCC3CCN(CC4CCCCC4)CC3)nc3ccsc3n2c1 :: 79.9
c1cc2c(OCC3CCN(CC4CCC4)CC3)nc3ccsc3n2c1 :: 25.9
c1cc2c(OCC3CCN(CC4CC4)CC3)nc3ccsc3n2c1 :: 53
COc1ccc(CN2CCC(COc3nc4ccsc4n4cccc34)CC2)cc1 :: 216

Consider the record given below.
Task: Suppose we examine the compound Cc1csc2nc(OCC3CCN(CC4CCCC4)CC3)c3cccn3c12 ; what Ki value has been reported?
Result: 21.3
